assay: chemical genetic growth profiling, strain panel (AID 1159580);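 further: tested at 20 µM; growth read once vehicle control cultures reached saturation at 30 °C; lower values mean less growth of the strain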; details: S. cerevisiae deletion strains, growth OD, locus YGR078C, strain PAC10
Hit rate of the full screen: of about 5,500 compounds, about 2,000 (36%) were called active. Another 18% or so got no clear call; they are omitted. No stated cut-off is given here; in the data, active means normalized growth mostly below about 0.91 (no sharp cut-off); inconclusive means no clear call, values can overlap the other calls; inactive means mostly above about 0.92. The list shows a part of the results.
Allowed answers: active, inactive

Use the examples below as a reference point.
| MOLECULE | ASSIGNED CLASS |
| --- | --- |
| C=C1SC(Nc2cccc(C(F)(F)F)c2)=NC12CCCCC2 | inactive |
| CCC(=O)c1c(O)cc(O)cc1O | inactive |
| CCC(c1ccc(O)cc1)C(CC)c1ccc(O)cc1 (stereo not given) | inactive |

**Q:** GET /call?item= Cc1ccc(-c2csc(-c3ccc(Oc4ccc(C(F)(F)F)cn4)cc3)n2)c(C)c1 returns the recorded outcome of this test.
**A:** inactive

**Q:** GET /call?item= COc1cc(/C=C(\C#N)C(N)=S)cc(OC)c1OC returns the recorded outcome of this test.
**A:** inactive

**Q:** GET /call?item= N#C/C(=C\c1ccc(O)c(O)c1)C(=O)NCCCc1ccccc1 returns the recorded outcome of this test.
**A:** inactive

**Q:** GET /call?item= Cc1cc(C2CCCCC2)n(O)c(=O)c1 returns the recorded outcome of this test.
**A:** active

**Q:** GET /call?item= CN1C(C)(C)CCCC1(C)C returns the recorded outcome of this test.
**A:** inactive

**Q:** GET /call?item= C[C@H](O)C(=O)C1=Nc2c(nc(N)[nH]c2=O)NC1 returns the recorded outcome of this test.
**A:** inactive

**Q:** GET /call?item= COc1cc(C=C(C#N)C#N)cc(O)c1O returns the recorded outcome of this test.
**A:** inactive

**Q:** GET /call?item= CCCCCCC(C)OC(=O)COc1ccc(Cl)cc1Cl (stereo not given) returns the recorded outcome of this test.
**A:** inactive

**Q:** GET /call?item= FC(F)(F)c1ccc(Cl)c(NC(=S)NN=C2CCCCCC2)c1 returns the recorded outcome of this test.
**A:** inactive

**Q:** GET /call?item= Cc1cc(OC(=O)c2c(C)cc(OC(=O)c3c(C)cc(O)cc3O)cc2O)cc(O)c1C(=O)O returns the recorded outcome of this test.
**A:** inactive

**Q:** GET /call?item= OC[C@H]1O[C@@H](n2cnc3c(N[C@H]4CC5CCC4C5)ncnc32)[C@H](O)[C@@H]1O (stereo not given in full) returns the recorded outcome of this test.
**A:** inactive

**Q:** GET /call?item= O=C1NC(=O)/C(=C/c2ccc(OS(=O)(=O)c3ccc(Cl)cc3)cc2)N1 returns the recorded outcome of this test.
**A:** inactive

**Q:** GET /call?item= O=C1CC(Nc2ccccc2)C=C1Nc1ccccc1 (stereo not given) returns the recorded outcome of this test.
**A:** inactive

**Q:** GET /call?item= CC(C)(O)[C@@H]1Cc2cc3ccc(=O)oc3cc2O1 returns the recorded outcome of this test.
**A:** inactive

**Q:** GET /call?item= N#Cc1ccc(-c2csc(-c3ccc(Oc4ccc(C(F)(F)F)cn4)cc3)n2)cc1 returns the recorded outcome of this test.
**A:** inactive

**Q:** GET /call?item= OC1(C(F)(F)F)CC(c2ccccc2)=NN1 (stereo not given) returns the recorded outcome of this test.
**A:** inactive
